The measured values listed here are drawn from patent US20230235012A1.

ASSAY SYSTEM: T1, human CTLA-4, full-length, expressed on transfected Expi293 cells (human, UniProt P16410 36-223)
T1 construct: whole, on cells
T1 sequence (P16410 36-223): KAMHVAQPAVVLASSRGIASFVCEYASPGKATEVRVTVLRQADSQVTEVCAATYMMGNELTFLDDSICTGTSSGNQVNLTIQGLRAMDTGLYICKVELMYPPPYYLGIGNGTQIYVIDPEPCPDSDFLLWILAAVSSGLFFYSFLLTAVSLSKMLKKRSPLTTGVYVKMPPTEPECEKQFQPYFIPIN
ASSAY NOTES: flow cytometry, 100 nM, Expi293 cells with human CTLA-4
MFI ratio to WT (ΔWT) listing for selected binders.
The response must be a number in fold with no trailing unit.

Solved cases (3 shown):
variant ICOSL IgV-Fc fusion N52R/N57F/Q100T (Fc fusion) DTQEKEVRAMVGSDVELSCACPEGSRFDLNDVYVYWQTSESKTVVTYHIPQRSSLEFVDSRYRNRALMSPAGMLRGDFSLRLFNVTPQDEQKFHCLVLSTSLGFQEVLSVEVTLHVAANFSVGSGGGGSEPKSSDKTHTCPPCPAPEAEGAPSVFLFPPKPKDTLMISRTPEVTCVVVDVSHEDPEVKFNWYVDGVEVHNAKTKPREEQYNSTYRVVSVLTVLHQDWLNGKEYKCKVSNKALPAPIEKTISKAKGQPREPQVYTLPPSREEMTKNQVSLTCLVKGFYPSDIAVEWESNGQPENNYKTTPPVLDSDGSFFLYSKLTVDKSRWQQGNVFSCSVMHEALHNHYTQKSLSLSPG :: 1.08
variant ICOSL IgV-Fc fusion N52G/N57V (Fc fusion) DTQEKEVRAMVGSDVELSCACPEGSRFDLNDVYVYWQTSESKTVVTYHIPQGSSLEVVDSRYRNRALMSPAGMLRGDFSLRLFNVTPQDEQKFHCLVLSQSLGFQEVLSVEVTLHVAANFSVGSGGGGSEPKSSDKTHTCPPCPAPEAEGAPSVFLFPPKPKDTLMISRTPEVTCVVVDVSHEDPEVKFNWYVDGVEVHNAKTKPREEQYNSTYRVVSVLTVLHQDWLNGKEYKCKVSNKALPAPIEKTISKAKGQPREPQVYTLPPSREEMTKNQVSLTCLVKGFYPSDIAVEWESNGQPENNYKTTPPVLDSDGSFFLYSKLTVDKSRWQQGNVFSCSVMHEALHNHYTQKSLSLSPG :: 0.16
variant ICOSL IgV-Fc fusion N52S/N57L/Q100S (Fc fusion) DTQEKEVRAMVGSDVELSCACPEGSRFDLNDVYVYWQTSESKTVVTYHIPQSSSLELVDSRYRNRALMSPAGMLRGDFSLRLFNVTPQDEQKFHCLVLSSSLGFQEVLSVEVTLHVAANFSVGSGGGGSEPKSSDKTHTCPPCPAPEAEGAPSVFLFPPKPKDTLMISRTPEVTCVVVDVSHEDPEVKFNWYVDGVEVHNAKTKPREEQYNSTYRVVSVLTVLHQDWLNGKEYKCKVSNKALPAPIEKTISKAKGQPREPQVYTLPPSREEMTKNQVSLTCLVKGFYPSDIAVEWESNGQPENNYKTTPPVLDSDGSFFLYSKLTVDKSRWQQGNVFSCSVMHEALHNHYTQKSLSLSPG :: 0.6

Consider the binder shown here: variant ICOSL IgV-Fc fusion N52S/N57Y/Q100V (Fc fusion) DTQEKEVRAMVGSDVELSCACPEGSRFDLNDVYVYWQTSESKTVVTYHIPQSSSLEYVDSRYRNRALMSPAGMLRGDFSLRLFNVTPQDEQKFHCLVLSVSLGFQEVLSVEVTLHVAANFSVGSGGGGSEPKSSDKTHTCPPCPAPEAEGAPSVFLFPPKPKDTLMISRTPEVTCVVVDVSHEDPEVKFNWYVDGVEVHNAKTKPREEQYNSTYRVVSVLTVLHQDWLNGKEYKCKVSNKALPAPIEKTISKAKGQPREPQVYTLPPSREEMTKNQVSLTCLVKGFYPSDIAVEWESNGQPENNYKTTPPVLDSDGSFFLYSKLTVDKSRWQQGNVFSCSVMHEALHNHYTQKSLSLSPG What is its recorded MFI ratio to WT (ΔWT)? 0.92

Quick one: MFI ratio to WT (ΔWT) for variant ICOSL IgV-Fc fusion N52T/N57H/Q100S (Fc fusion) DTQEKEVRAMVGSDVELSCACPEGSRFDLNDVYVYWQTSESKTVVTYHIPQTSSLEHVDSRYRNRALMSPAGMLRGDFSLRLFNVTPQDEQKFHCLVLSSSLGFQEVLSVEVTLHVAANFSVGSGGGGSEPKSSDKTHTCPPCPAPEAEGAPSVFLFPPKPKDTLMISRTPEVTCVVVDVSHEDPEVKFNWYVDGVEVHNAKTKPREEQYNSTYRVVSVLTVLHQDWLNGKEYKCKVSNKALPAPIEKTISKAKGQPREPQVYTLPPSREEMTKNQVSLTCLVKGFYPSDIAVEWESNGQPENNYKTTPPVLDSDGSFFLYSKLTVDKSRWQQGNVFSCSVMHEALHNHYTQKSLSLSPG ? 1.14

Give its MFI ratio to WT (ΔWT) value. Item: variant ICOSL IgV-Fc fusion N52S/N57H/Q100E (Fc fusion) DTQEKEVRAMVGSDVELSCACPEGSRFDLNDVYVYWQTSESKTVVTYHIPQSSSLEHVDSRYRNRALMSPAGMLRGDFSLRLFNVTPQDEQKFHCLVLSESLGFQEVLSVEVTLHVAANFSVGSGGGGSEPKSSDKTHTCPPCPAPEAEGAPSVFLFPPKPKDTLMISRTPEVTCVVVDVSHEDPEVKFNWYVDGVEVHNAKTKPREEQYNSTYRVVSVLTVLHQDWLNGKEYKCKVSNKALPAPIEKTISKAKGQPREPQVYTLPPSREEMTKNQVSLTCLVKGFYPSDIAVEWESNGQPENNYKTTPPVLDSDGSFFLYSKLTVDKSRWQQGNVFSCSVMHEALHNHYTQKSLSLSPG 0.92

I'd like to know its MFI ratio to WT (ΔWT). The binder in question is variant ICOSL IgV-Fc fusion N52S/N57Y/Q100M (Fc fusion) DTQEKEVRAMVGSDVELSCACPEGSRFDLNDVYVYWQTSESKTVVTYHIPQSSSLEYVDSRYRNRALMSPAGMLRGDFSLRLFNVTPQDEQKFHCLVLSMSLGFQEVLSVEVTLHVAANFSVGSGGGGSEPKSSDKTHTCPPCPAPEAEGAPSVFLFPPKPKDTLMISRTPEVTCVVVDVSHEDPEVKFNWYVDGVEVHNAKTKPREEQYNSTYRVVSVLTVLHQDWLNGKEYKCKVSNKALPAPIEKTISKAKGQPREPQVYTLPPSREEMTKNQVSLTCLVKGFYPSDIAVEWESNGQPENNYKTTPPVLDSDGSFFLYSKLTVDKSRWQQGNVFSCSVMHEALHNHYTQKSLSLSPG 1.2
